For each of the binders below, state its EC50.
biological target: T1, human tissue factor (TF), membrane-bound on cells (human, UniProt P13726 33-295); assay: FACS, A431 cells
T1 construct: whole, on cells; also called cellular TF
Just the number please, in nM, no unit attached.

Dear colleague, I am looking for the recorded EC50 of the following binder: anti-TF HuMab 098 (antibody, V domains shown, Human monoclonal antibody from HuMab mice; also called HuMab-TF-098; HuMab-TF-98) VH: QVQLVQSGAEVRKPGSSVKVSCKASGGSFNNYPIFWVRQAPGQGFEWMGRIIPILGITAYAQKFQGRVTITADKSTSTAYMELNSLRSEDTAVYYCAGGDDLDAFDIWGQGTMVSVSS VL: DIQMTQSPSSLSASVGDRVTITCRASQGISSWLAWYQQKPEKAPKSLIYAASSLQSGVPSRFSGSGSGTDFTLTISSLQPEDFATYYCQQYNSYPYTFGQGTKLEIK 1.4

Moving on to the next binder: anti-TF HuMab 111 (antibody, V domains shown, Human monoclonal antibody from HuMab mice) VH: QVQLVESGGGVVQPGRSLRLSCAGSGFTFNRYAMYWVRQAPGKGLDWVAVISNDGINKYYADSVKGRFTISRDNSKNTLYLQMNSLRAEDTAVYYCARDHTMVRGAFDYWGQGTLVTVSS VL: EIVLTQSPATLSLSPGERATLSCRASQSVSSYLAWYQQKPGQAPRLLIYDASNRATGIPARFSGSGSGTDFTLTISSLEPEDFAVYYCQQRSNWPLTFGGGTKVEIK 2.88

Moving on to the next binder: anti-TF HuMab 109 (antibody, V domains shown, Human monoclonal antibody from HuMab mice) VH: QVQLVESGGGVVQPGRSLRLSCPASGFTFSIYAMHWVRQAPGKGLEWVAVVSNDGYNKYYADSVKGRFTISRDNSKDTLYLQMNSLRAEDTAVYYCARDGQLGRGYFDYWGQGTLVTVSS VL: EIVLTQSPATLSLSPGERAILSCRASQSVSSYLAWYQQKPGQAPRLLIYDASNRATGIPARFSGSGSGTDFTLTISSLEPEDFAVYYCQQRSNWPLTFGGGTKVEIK 1.74

Moving on to the next binder: anti-TF HuMab 013 (antibody, V domains shown, Human monoclonal antibody from HuMab mice; also called HuMab-TF-13) VH: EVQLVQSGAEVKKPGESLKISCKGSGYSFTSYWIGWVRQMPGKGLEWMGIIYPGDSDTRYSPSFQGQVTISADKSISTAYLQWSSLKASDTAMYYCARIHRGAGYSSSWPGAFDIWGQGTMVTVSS VL: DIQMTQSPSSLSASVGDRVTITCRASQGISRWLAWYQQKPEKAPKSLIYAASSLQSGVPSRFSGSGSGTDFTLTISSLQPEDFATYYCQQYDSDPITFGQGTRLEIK 8.04
